# System: MV4-11
# ASSAY_INFO: Cytotoxicity against human MV4-11 cells assessed as reduction in cell viability after 72 hrs by MTT assay
# Format: functional, cell-based
# CONDITION_CONTEXT: MV4-11, 72 h
RECORDED_METRIC: IC50 (nM)
Reply numerically in nM, unit not repeated.

Kindly note the recorded IC50 for `Cc1cc(N)c2cc(Nc3nc(Nc4ccc(N5CCN(C)CC5)cc4)ncc3F)ccc2n1` , which is 3

---

Read-out record for Vascular endothelial growth factor receptor 2 (Homo sapiens): IC50
Provide only the numeric value, understood in nM.

Recorded IC50 for `N#Cc1cc(Oc2ccc(NC(=O)Nc3ccc(Cl)c(C(F)(F)F)c3)cc2)ccn1` on Vascular endothelial growth factor receptor 2 (Homo sapiens) was 214

Entry `CNC(=O)c1nccc(Oc2ccc(NC(=O)Nc3nc4ccccc4s3)cc2)n1` under Vascular endothelial growth factor receptor 2 (Homo sapiens) had IC50 of 36
